Below is a list of entries, each paired with its recorded EC50 value.
test system: SARS-CoV-2; assay: microbe, parasite or virus in culture; type: cell-based; settings: Severe acute respiratory syndrome coronavirus 2
Field: numeric (nM). Do not append units.

>  <compound>
CCN(CC)CCN(Cc1ccc(-c2ccc(C(F)(F)F)cc2)cc1)C(=O)Cn1c(SCc2ccc(F)cc2)nc(=O)c2c1CCC2 [Darapladib]

>  <EC50 (nM)>
800

$$$$

Alright, here's another compound for you.
Request: Look up EC50 of c1cc(OCCCN2CCCCC2)ccc1CN1CCCCC1 [JNJ-5207852] and report it.
Result: 3100

----------
assay: in vitro; type: cell-based; details: human; Caco-2
Recorded CC50 values for a group of compounds are listed next.

Below: 2 compounds and their reported CC50.
>  <line notation>
c1cc(OCCCN2CCCCC2)ccc1CN1CCCCC1

>  <CC50>
> 100 µM

$$$$
>  <line notation>
CCC(CC)COC(=O)[C@H](C)N[P@](=O)(OC[C@H]1O[C@@](C#N)(c2ccc3c(N)ncnn23)[C@H](O)[C@@H]1O)Oc1ccccc1

>  <CC50>
> 50 µM

$$$$

Next item in the queue.
Request: Determine from records and report CC50 for CCN(CC)CCN(Cc1ccc(-c2ccc(C(F)(F)F)cc2)cc1)C(=O)Cn1c(SCc2ccc(F)cc2)nc(=O)c2c1CCC2
Result: 9.4 µM

----------
Reported CC50 by item:
test: in vitro; type: cell-based; conditions: human; Calu-3

Request: Provide CC50 value for the following compound: CCN(CC)CCN(Cc1ccc(-c2ccc(C(F)(F)F)cc2)cc1)C(=O)Cn1c(SCc2ccc(F)cc2)nc(=O)c2c1CCC2
Result: 7.6 µM

Request: Report CC50, nothing else, for this compound: c1cc(OCCCN2CCCCC2)ccc1CN1CCCCC1
Result: > 100 µM

Request: Provide CC50 value for the following compound: CCC(CC)COC(=O)[C@H](C)N[P@](=O)(OC[C@H]1O[C@@](C#N)(c2ccc3c(N)ncnn23)[C@H](O)[C@@H]1O)Oc1ccccc1
Result: > 50 µM
